particulars: human gut metagenome, 24 h, 2 µM; note: call rule not given here
observedProperty: Bacterial Biotransformation

compound | result
CCN(CC)C(C)CN1c2ccccc2Sc2ccccc21 (stereo not drawn) | Compound metabolized
Cc1cn([C@H]2C[C@H](N=[N+]=[N-])[C@@H](CO)O2)c(=O)[nH]c1=O | Compound NOT metabolized
CS(=O)(=O)O.O.O.O.O=C1Cc2cc(CCN3CCN(c4nsc5ccccc45)CC3)c(Cl)cc2N1 [ZIPRASIDONE MESYLATE] | Compound metabolized
CC(C)c1c(C(=O)Nc2ccccc2)c(-c2ccccc2)c(-c2ccc(F)cc2)n1CC[C@@H](O)C[C@@H](O)CC(=O)O | Compound metabolized
OC(Cn1cncn1)(Cn1cncn1)c1ccc(F)cc1F | Compound NOT metabolized

Dear colleague, could you please provide Bacterial Biotransformation for the compounds listed below?
1. CCCc1nn(C)c2c(=O)[nH]c(-c3cc(S(=O)(=O)N4CCN(C)CC4)ccc3OCC)nc12.O=C(O)CC(O)(CC(=O)O)C(=O)O [SILDENAFIL CITRATE]
2. O=C(O)CCc1nc(-c2ccccc2)c(-c2ccccc2)o1
3. Cc1ccc(-c2nc3ccc(C)cn3c2CC(=O)N(C)C)cc1
4. CN1CCN(C(=O)O[C@H]2c3nccnc3C(=O)N2c2ccc(Cl)cn2)CC1
5. CN1CCN(C2=Nc3cc(Cl)ccc3Nc3ccccc32)CC1
6. CCCCCOC(=O)Nc1nc(=O)n([C@@H]2O[C@H](C)[C@@H](O)[C@H]2O)cc1F

Compound NOT metabolized
Compound metabolized
Compound metabolized
Compound NOT metabolized
Compound metabolized
Compound metabolized

Dear colleague, could you please provide Bacterial Biotransformation for the compounds listed below?
1. Cc1ccc(-c2cc(C(F)(F)F)nn2-c2ccc(S(N)(=O)=O)cc2)cc1
2. CC(CN1c2ccccc2Sc2ccccc21)N(C)C (stereo not drawn)
3. CC(C)NCC(O)COc1ccc(CCOCC2CC2)cc1 (stereo not drawn)
4. CN1CC(=O)N2[C@H](c3ccc4c(c3)OCO4)c3[nH]c4ccccc4c3C[C@@H]2C1=O
5. CCN(CC)CC#CCOC(=O)C(O)(c1ccccc1)C1CCCCC1.Cl (stereo not drawn) [OXYBUTYNIN CHLORIDE]
6. OC(CCN1CCCCC1)(c1ccccc1)C1CCCCC1 (stereo not drawn)
7. O=c1n(CCCN2CCN(c3cccc(Cl)c3)CC2)nc2ccccn12

1: Compound NOT metabolized; 2: Compound NOT metabolized; 3: Compound NOT metabolized; 4: Compound metabolized; 5: Compound metabolized; 6: Compound metabolized; 7: Compound metabolized

---

particulars: human gut metagenome, 24 h, 2 µM
observedProperty: Bacterial Biotransformation

Take a look at these entries with their results.
compound | observedProperty | result
CCCCC(=O)N(Cc1ccc(-c2ccccc2-c2nnn[nH]2)cc1)[C@H](C(=O)O)C(C)C | Bacterial Biotransformation | Compound metabolized
Fc1ccc([C@@H]2CCNC[C@H]2COc2ccc3c(c2)OCO3)cc1 | Bacterial Biotransformation | Compound metabolized
CN(C)CC(c1ccc(O)cc1)C1(O)CCCCC1.O=C(O)CCC(=O)O (centres undefined) [DESVENLAFAXINE SUCCINATE] | Bacterial Biotransformation | Compound NOT metabolized
C[C@@H](CO)NC(=O)[C@@H]1C=C2c3cccc4[nH]cc(c34)C[C@H]2N(C)C1.O=C(O)/C=C\C(=O)O [ERGONOVINE MALEATE] | Bacterial Biotransformation | Compound NOT metabolized
C[C@@H]1CC[C@H]2[C@@H](C)C(=O)O[C@@H]3O[C@@]4(C)CC[C@@H]1[C@]32OO4 | Bacterial Biotransformation | Compound metabolized

Dear colleague, could you please provide Bacterial Biotransformation for the compounds listed below?
1. CN(C)CCC=C1c2ccccc2C=Cc2ccccc21
2. OC(CCN1CCCCC1)(c1ccccc1)C1CC2C=CC1C2 (centres undefined)
3. CCN(CC)CCNC(=O)c1cc(Cl)c(N)cc1OC [METOCLOPRAMIDE]
4. CCCc1nn(C)c2c(=O)[nH]c(-c3cc(S(=O)(=O)N4CCN(C)CC4)ccc3OCC)nc12.O=C(O)CC(O)(CC(=O)O)C(=O)O [SILDENAFIL CITRATE]

Compound metabolized
Compound NOT metabolized
Compound NOT metabolized
Compound NOT metabolized
